target: huCTLA4 (Homo sapiens, UniProt P16410); assay: Flow binding to CHO cells stably expressing CTLA4; set-up: huCTLA4 and huPD-L1, full-length mammalian surface expression constructs were generated; expressed in transfected cells; host or cells: CHO cells, lentiviral transduction, sorted to >98% purity; conditions: Table E19; CHO cells stably expressing CTLA4; 33.3 nM
Sequence (P16410 36-223): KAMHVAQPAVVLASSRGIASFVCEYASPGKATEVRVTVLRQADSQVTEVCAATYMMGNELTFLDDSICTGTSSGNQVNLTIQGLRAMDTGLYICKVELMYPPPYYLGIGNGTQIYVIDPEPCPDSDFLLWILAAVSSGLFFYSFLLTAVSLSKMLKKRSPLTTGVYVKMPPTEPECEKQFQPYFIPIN
Quick rule for you: CTLA4 MFI at 33.3 nM under 30000 gets Yes, anything else gets No.

E35D/D46V/M47V/V68M/L85Q (protein) VIHVTKEVKEVATLSCGHNVSVEELAQTRIYWQKDKKMVLTMMSGVVNIWPEYKNRTIFDITNNLSIMILALRPSDEGTYECVVQKYEKDAFKREHLAEVTLSVKAD
No
E35D/M47L/L85Q: variant CD80 IgV-Fc, IgV SEQ ID NO:418 (protein) VIHVTKEVKEVATLSCGHNVSVEELAQTRIYWQKDKKMVLTMMSGDLNIWPEYKNRTIFDITNNLSIVILALRPSDEGTYECVVQKYEKDAFKREHLAEVTLSVKAD
Yes
E35D/M47V/N48K (protein) VIHVTKEVKEVATLSCGHNVSVEELAQTRIYWQKDKKMVLTMMSGDVKIWPEYKNRTIFDITNNLSIVILALRPSDEGTYECVVLKYEKDAFKREHLAEVTLSVKAD
No
E35D/M47V/N48K/V68M/L85Q (protein) VIHVTKEVKEVATLSCGHNVSVEELAQTRIYWQKDKKMVLTMMSGDVKIWPEYKNRTIFDITNNLSIMILALRPSDEGTYECVVQKYEKDAFKREHLAEVTLSVKAD
Yes
E35D/N48K (protein) VIHVTKEVKEVATLSCGHNVSVEELAQTRIYWQKDKKMVLTMMSGDMKIWPEYKNRTIFDITNNLSIVILALRPSDEGTYECVVLKYEKDAFKREHLAEVTLSVKAD
No
M47L/V68M/L85Q (protein) VIHVTKEVKEVATLSCGHNVSVEELAQTRIYWQKEKKMVLTMMSGDLNIWPEYKNRTIFDITNNLSIMILALRPSDEGTYECVVQKYEKDAFKREHLAEVTLSVKAD
Yes
E35D/V68M/L85Q (protein) VIHVTKEVKEVATLSCGHNVSVEELAQTRIYWQKDKKMVLTMMSGDMNIWPEYKNRTIFDITNNLSIMILALRPSDEGTYECVVQKYEKDAFKREHLAEVTLSVKAD
No
E35D/D46V/M47L/V68M (protein) VIHVTKEVKEVATLSCGHNVSVEELAQTRIYWQKDKKMVLTMMSGVLNIWPEYKNRTIFDITNNLSIMILALRPSDEGTYECVVLKYEKDAFKREHLAEVTLSVKAD
No
E35D/D46V/M47L (protein) VIHVTKEVKEVATLSCGHNVSVEELAQTRIYWQKDKKMVLTMMSGVLNIWPEYKNRTIFDITNNLSIVILALRPSDEGTYECVVLKYEKDAFKREHLAEVTLSVKAD
No
E35D/M47L/V68M/L85Q (protein) VIHVTKEVKEVATLSCGHNVSVEELAQTRIYWQKDKKMVLTMMSGDLNIWPEYKNRTIFDITNNLSIMILALRPSDEGTYECVVQKYEKDAFKREHLAEVTLSVKAD
Yes
M47V (protein) VIHVTKEVKEVATLSCGHNVSVEELAQTRIYWQKEKKMVLTMMSGDVNIWPEYKNRTIFDITNNLSIVILALRPSDEGTYECVVLKYEKDAFKREHLAEVTLSVKAD
No
N48K/V68M (protein) VIHVTKEVKEVATLSCGHNVSVEELAQTRIYWQKEKKMVLTMMSGDMKIWPEYKNRTIFDITNNLSIMILALRPSDEGTYECVVLKYEKDAFKREHLAEVTLSVKAD
Yes
L85Q (protein) VIHVTKEVKEVATLSCGHNVSVEELAQTRIYWQKEKKMVLTMMSGDMNIWPEYKNRTIFDITNNLSIVILALRPSDEGTYECVVQKYEKDAFKREHLAEVTLSVKAD
Yes
N48K (protein) VIHVTKEVKEVATLSCGHNVSVEELAQTRIYWQKEKKMVLTMMSGDMKIWPEYKNRTIFDITNNLSIVILALRPSDEGTYECVVLKYEKDAFKREHLAEVTLSVKAD
Yes
K89N (protein) VIHVTKEVKEVATLSCGHNVSVEELAQTRIYWQKEKKMVLTMMSGDMNIWPEYKNRTIFDITNNLSIVILALRPSDEGTYECVVLKYENDAFKREHLAEVTLSVKAD
Yes
